system: BT-549 breast; test: NCI tumour cell line growth inhibition, 48 h
I'd be grateful if you could share measured TGI for these entries.

Ask: Quick one: TGI for Cc1cnc2sn(-c3ccc(Br)cc3)c(=O)c2c1 ?
Result: > 100 µM

Ask: Can you share its TGI? I mean this molecule: COc1ccc(CC(=O)c2ccc(O)cc2O)cc1
Result: > 100 µM

Ask: // lookup TGI for Cn1cccc1-c1cc(-c2ccc(Br)cc2)[nH]c(=O)c1C#N
Result: > 100 µM

====

Give measured TGI for each item. Keep answers brief.
test system: SK-OV-3 ovarian; test: NCI tumour cell line growth inhibition, 48 h

Ask: Tell me the measured TGI of CCCN(CCC)C(=O)C(=O)c1c(N)[nH]n(-c2ccccc2)c1=O , please.
Result: > 100 µM

Ask: Could you tell me which TGI is on file for COc1cc(OC)c(C(=O)/C=C/c2cccc(C#N)c2)c(OC)c1 ?
Result: > 50 µM

Ask: Give the measured TGI of CNc1nc(C(N)=O)c(N)s1 .
Result: > 100 µM
